System: HEK-293T
Assay: Incucyte cell viability with HEK293T; also: filed as whole numbers so only -1 and 0 and 1 occur
Assay type: toxicity, cell-based
Conditions: human, 24 h, 10 µM, compound concentration 10 uM, replicate number 1, timepoint 24 hours
reported-endpoint: Growth Rate
// return a plain number; no unit text

## Input Growth Rate lookup needed for CO[C@@H](C)c1c(Nc2ccc([C@H](N(C)C(=O)C3CCS(=O)(=O)CC3)C(F)(F)F)cc2)cnc2cc(Cl)nn12 , thanks.
## Output 0

## Input I am curious: what Growth Rate value has been reported for Cc1cc(C)c(-n2ccn3nc(-c4cccnc4)cc23)cc1NC(=O)c1cc(C#N)cc(S(F)(F)(F)(F)F)c1 ?
## Output 0

## Input Dear colleague, I am looking for the recorded Growth Rate of the following molecule: CC(C)c1noc(N2CCC(COc3ccc(-c4ccc(S(C)(=O)=O)cc4)nc3)CC2)n1
## Output 0

## Input # lookup: Growth Rate of O=S1(=O)c2cccc3cccc(c23)N1CCCN1CCN(c2ccc(F)cc2)CC1
## Output 0

## Input Which measured Growth Rate value corresponds to COC(=O)C(Cc1ccc(OCCn2c(=O)sc3cc(C(=O)c4ccccc4)ccc32)cc1)C(=O)OC ?
## Output 0

## Input # lookup: Growth Rate of COc1ccccc1CN[C@H]1C2CCN(CC2)[C@H]1C(c1ccccc1)c1ccccc1
## Output 0

## Input // returns reported Growth Rate for input O=c1cc(N2CCOCC2)oc2c(-c3cccc4c3sc3ccccc34)cccc12
## Output 0

## Input I am curious: what Growth Rate value has been reported for C[C@]1(C(=O)N(CCCC(=O)O)Cc2cccc(Cl)c2)CCN1C(=O)c1csc2ccccc12 ?
## Output 1

## Input Can you share its Growth Rate? I mean this molecule: COc1cc(-c2cn([C@H]3CCc4ccccc4N(CC(F)(F)F)C3=O)nn2)ccc1-n1ccc(C)n1
## Output 0

## Input For C[C@]12CC[C@@H]3c4ccc(O)cc4CC[C@H]3[C@@H]1CC[C@@H]2O , what is its reported Growth Rate?
## Output 0

## Input What value of Growth Rate has been recorded for this entry: S=C=Nc1cccc(NC(=S)NCCCCNC(=S)Nc2cccc(N=C=S)c2)c1
## Output 0

## Input Look up Growth Rate: O=C(O)C1CN(Cc2ccc(-c3nc4cc(Cc5ccccc5F)ccc4s3)c(F)c2)C1
## Output 0

## Input Which measured Growth Rate value corresponds to Nc1ncnc2c1ccn2[C@@H]1O[C@H]([C@H](O)c2ccccc2)[C@@H](O)[C@H]1O ?
## Output 1

## Input Tell me the measured Growth Rate of Cc1cc([C@@H](C)Nc2ccccc2C(=O)O)c2nc(N3CCOCC3)cc(=O)n2c1 , please.
## Output 0

## Input I would be grateful if you could share the reported Growth Rate for COc1ccc(S(=O)(=O)c2cc(OC)ccc2S(=O)(=O)c2ccc([C@H](C)NS(C)(=O)=O)cc2)cc1 .
## Output 1

## Input Query: Growth Rate; subject: Cc1cc(NC(=O)c2cccc(S(F)(F)(F)(F)F)c2)cc(-n2ccn3nc(-c4cccnc4)cc23)c1
## Output 0

## Input For the molecule O=C(c1cc2c(cc1F)OC(c1ccc(F)cc1)(c1ccc(Cl)cc1Cl)O2)N1CCOCC1 (stereo not given) , what Growth Rate is on record?
## Output 0

## Input Which Growth Rate reading was recorded for the molecule CN(C)C(=O)Cn1cc(-c2nc([C@@](C)(c3ccc(-c4cnc(N)nc4)cc3)C3CC3)no2)cn1 ?
## Output 0

## Input Look up Growth Rate for this molecule: CCc1ccc(OCc2ccccc2C(=O)Nc2ccc3nc(C)cc(N)c3c2)cc1.Cl
## Output 0

## Input What Growth Rate value was documented for this molecule, Cc1cc(-n2nc(Cc3cc(F)cc(C(F)(F)F)c3)nc2C)ccc1C(N)=O ?
## Output 0

## Input Need Growth Rate of C=CC(=O)Nc1cccc(Oc2nc(Nc3ccc(N4CCN(C)CC4)cc3OC)ncc2Cl)c1 , thanks.
## Output 0

## Input Please give the measured Growth Rate for this molecule: O=C([O-])c1cc2ccccc2c(Cc2c(O)c(C(=O)[O-])cc3ccccc23)c1O.[Na+].[Na+]
## Output 1

## Input Record request: Growth Rate value, item CCOC(=O)CCNc1cc(N2CCc3ccccc3CC2)nc(-c2cccnc2)n1
## Output 0

## Input Give the measured Growth Rate of O=C(NCC(=O)N1CCCC1)Nc1ccc2cnccc2c1 .
## Output 1

## Input Given COc1ccc(-c2ccc3ncc4c(c3c2)n(-c2ccc(N3CCNCC3)c(C(F)(F)F)c2)c(=O)n4C)cn1.O=C(O)/C=C\C(=O)O , state its recorded Growth Rate.
## Output 0

## Input Would you mind telling me what Growth Rate value was observed for C[C@]1(O)C[C@@H](c2nc(-c3ccc4ccc(-c5ccccc5)nc4c3)c3c(N)nccn32)C1 ?
## Output 0

## Input Given the entry CSc1cccnc1N1CCN(Cc2nc3ccccc3[nH]2)CC1 , report its measured Growth Rate.
## Output 0

## Input Form field: reported Growth Rate of Cc1cccc(CN2CCN(C(c3ccccc3)c3ccc(Cl)cc3)CC2)c1.Cl.Cl (stereo not given)
## Output 0

## Input // returns reported Growth Rate for input Cl.O=C(O)c1cc(-c2ccc(C3CCNCC3)cc2)c2ccc(-c3ccc(C(F)(F)F)cc3)cc2c1
## Output 0

## Input Find the recorded Growth Rate belonging to C#Cc1cccc(Nc2ncnc3cc(OCCOC)c(OCCOC)cc23)c1 and report it.
## Output 0

## Input Query (molecule): Cc1nc(N2CC[C@H](O)C2)ncc1-c1cc(C(F)(F)F)cc2[nH]ncc12 ; field requested: Growth Rate
## Output 0

## Input Can you look up the measured Growth Rate of CC(C)OC(=O)N1CCC(Oc2ncnc3c2cnn3-c2ccc(S(C)(=O)=O)cc2F)CC1 for me?
## Output 0

## Input Any idea what its Growth Rate is? The molecule is C[C@H](c1ccc(F)cc1)N(Cc1cccc(C(=O)O)c1)C(=O)c1cnc2ccccc2c1
## Output 1

## Input Fill in the blank: the reported Growth Rate of COc1cc2ncn(-c3cc(OCc4ccccc4C(F)(F)F)c(C(N)=O)s3)c2cc1OC [GW843682X] is ____.
## Output 0

## Input Need Growth Rate, item Cl.Cl.Cl.c1ccc(N2CCN(Cc3nc4ccccc4[nH]3)CC2)nc1
## Output 0

* * *

Tested on: HEK-293T
Assay: Multiplex assay against HEK293T
Assay type: toxicity, cell-based
Details: human, 24 h, 1 µM, compound concentration 1 uM, replicate 1
Could you please report measured Population Hoechst High Intensity Objects (%) for the items listed next?
Remember to put the unit after the number in your answer.

## Input Which Population Hoechst High Intensity Objects (%) reading was recorded for the molecule CC(C)c1noc(N2CCC(COc3ccc(-c4ccc(S(C)(=O)=O)cc4)nc3)CC2)n1 [GSK-1292263] ?
## Output 19%

## Input What value of Population Hoechst High Intensity Objects (%) has been reported for the following molecule? CCOC(=O)Nc1cc(-c2ccc(C)c(NS(C)(=O)=O)c2)nn2c(C)nnc12
## Output 7%

## Input Requested read-out: Population Hoechst High Intensity Objects (%). Entry: COc1cc(Nc2nccc(-c3cnn4nc(OC)ccc34)n2)cc(C(F)(F)F)c1
## Output 20%

## Input If you can, please state the reported Population Hoechst High Intensity Objects (%) value of COc1cc2ncn(-c3cc(OCc4ccccc4C(F)(F)F)c(C(N)=O)s3)c2cc1OC [GW843682X] .
## Output 19%

## Input Recorded Population Hoechst High Intensity Objects (%) for CCc1ccc(OCc2ccccc2C(=O)Nc2ccc3nc(C)cc(N)c3c2)cc1.Cl , please?
## Output 19%

## Input Tell me the measured Population Hoechst High Intensity Objects (%) of C=CC(=O)Nc1cccc(Sc2nc(Nc3ccc(N4CCN(C)CC4)cc3)ncc2Cl)c1 , please.
## Output 14%

## Input Reported Population Hoechst High Intensity Objects (%) for CCCSc1nc(N[C@@H]2C[C@H]2c2ccc(F)c(F)c2)c2nnn([C@@H]3C[C@H](OCCO)[C@@H](O)[C@H]3O)c2n1 [TICAGRELOR] : what is it?
## Output 18%

## Input What does the record list as Population Hoechst High Intensity Objects (%) for Cc1nc(N2CC[C@H](O)C2)ncc1-c1cc(C(F)(F)F)cc2[nH]ncc12 ?
## Output 5%

## Input Please look up its Population Hoechst High Intensity Objects (%): CNC(=O)Nc1ccc(-c2nc(N3CC4CCC(C3)O4)c3cnn(C4CCC5(CC4)OCCO5)c3n2)cc1
## Output 29%

## Input Quick one: Population Hoechst High Intensity Objects (%) of Cl.O=C(O)c1cc(-c2ccc(C3CCNCC3)cc2)c2ccc(-c3ccc(C(F)(F)F)cc3)cc2c1 ?
## Output 22%

## Input # query: Population Hoechst High Intensity Objects (%) of entry CC(C)Oc1ccccc1C(=O)Nc1ccccc1C(=O)Nc1cccc(S(=O)(=O)C(F)(F)F)c1
## Output 14%

## Input Fill in: Population Hoechst High Intensity Objects (%) of O=C(c1cc2c(cc1F)OC(c1ccc(F)cc1)(c1ccc(Cl)cc1Cl)O2)N1CCOCC1 (centres undefined) is ___
## Output 15%

## Input Request the reported Population Hoechst High Intensity Objects (%) associated with CN1CCN(Cc2ccc(Nc3ncc(Cl)c(Nc4ccccc4S(=O)(=O)N(C)C)n3)cc2)CC1 [DUBERMATINIB]
## Output 10%

## Input # get_value(readout='Population Hoechst High Intensity Objects (%)', item= CC(C)CC(=O)Nc1[nH]nc2c1CN(C(=O)C1CCN(C)CC1)C2(C)C [PHA-793887] )
## Output 4%
